Target: Cholinesterase (Homo sapiens, UniProt P06276)
Sequence (P06276 whole entry): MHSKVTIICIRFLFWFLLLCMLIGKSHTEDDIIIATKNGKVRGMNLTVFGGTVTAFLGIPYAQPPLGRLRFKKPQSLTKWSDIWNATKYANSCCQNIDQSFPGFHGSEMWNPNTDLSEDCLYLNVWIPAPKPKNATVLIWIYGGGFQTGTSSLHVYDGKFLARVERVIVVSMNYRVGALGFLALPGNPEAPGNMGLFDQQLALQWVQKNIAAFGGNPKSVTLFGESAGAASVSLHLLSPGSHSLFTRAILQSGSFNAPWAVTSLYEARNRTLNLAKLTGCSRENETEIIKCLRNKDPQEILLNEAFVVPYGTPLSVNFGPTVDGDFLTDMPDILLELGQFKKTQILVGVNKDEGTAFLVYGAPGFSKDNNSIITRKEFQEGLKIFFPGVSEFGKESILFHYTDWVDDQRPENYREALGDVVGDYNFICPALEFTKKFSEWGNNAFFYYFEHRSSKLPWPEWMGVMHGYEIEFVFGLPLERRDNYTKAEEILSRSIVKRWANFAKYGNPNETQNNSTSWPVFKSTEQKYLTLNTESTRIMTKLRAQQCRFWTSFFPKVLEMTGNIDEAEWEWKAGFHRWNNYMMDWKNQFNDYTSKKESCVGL
Test: Inhibition of human butyrylcholinesterase by Ellman's method
readout_name: pIC50
When answering, recall that pIC50 equals minus log10 of the concentration in mol/L, and write that number alone.

[ask] For the record `Cc1cc(=O)oc2cc(OC/C=C/CCn3cnc4c(N5CCCC5)ncnc43)ccc12` , what value of pIC50 is listed for Cholinesterase (Homo sapiens, UniProt P06276)?
[reply] 5.33

###

Target: Acetylcholinesterase (Homo sapiens)
Sequence (P22303 whole entry): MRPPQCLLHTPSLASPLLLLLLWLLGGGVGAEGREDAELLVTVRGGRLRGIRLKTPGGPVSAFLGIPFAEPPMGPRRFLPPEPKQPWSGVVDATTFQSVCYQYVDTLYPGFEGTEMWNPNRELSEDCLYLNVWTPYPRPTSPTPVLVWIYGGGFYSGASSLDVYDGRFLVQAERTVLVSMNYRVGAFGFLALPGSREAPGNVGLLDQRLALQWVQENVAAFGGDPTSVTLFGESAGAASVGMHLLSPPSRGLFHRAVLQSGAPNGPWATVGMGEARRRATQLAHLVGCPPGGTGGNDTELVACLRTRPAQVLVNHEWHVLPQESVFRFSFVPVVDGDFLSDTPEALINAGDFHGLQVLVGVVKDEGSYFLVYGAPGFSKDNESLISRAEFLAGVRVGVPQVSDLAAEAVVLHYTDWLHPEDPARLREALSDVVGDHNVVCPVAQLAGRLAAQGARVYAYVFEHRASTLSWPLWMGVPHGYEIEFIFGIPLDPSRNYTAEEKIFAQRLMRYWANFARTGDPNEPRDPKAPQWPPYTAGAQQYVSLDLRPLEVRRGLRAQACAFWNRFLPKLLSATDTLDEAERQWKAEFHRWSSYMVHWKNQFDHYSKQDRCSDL
Assay: Inhibition of human erythrocyte acetylcholinesterase using acetylthiocholine as substrate preincubated for 60 mins followed by substrate addition by Ellman's method
readout_name: pIC50
When answering, recall that pIC50 equals minus log10 of the concentration in mol/L, and write that number alone.

{"compound": "C#CCN(C)C(C)Cc1cccc(OC(=O)N(C)CCCCCC)c1 (single isomer, unassigned; (+))", "tgt": "Acetylcholinesterase (Homo sapiens)", "pIC50": 5.70}

[ask] Fill blank: measured pIC50 of the compound C#CCN(C)C(C)Cc1cccc(OC(=O)N(C)CCCCCC)c1 (single isomer, unassigned; (-)) is ____.
[reply] 5.47

###

Target: Acetylcholinesterase (Electrophorus electricus)
Assay: Inhibition of electric eel AChE using acetylthiocholine iodide as substrate preincubated for 6 mins followed by substrate addition and measured up to 180 secs by Ellman's method
readout_name: pIC50
When answering, recall that pIC50 equals minus log10 of the concentration in mol/L, and write that number alone.

[ask] Fill blank: measured pIC50 of the compound `O=C(NCCCCCCNc1c2c(nc3ccccc13)CCCC2)c1cc(O)c2c(c1)C(=O)c1cccc(O)c1C2=O` is ____.
[reply] 7.56

###

Target: Cholinesterase (Equus caballus, UniProt P81908)
Sequence (P81908 whole entry): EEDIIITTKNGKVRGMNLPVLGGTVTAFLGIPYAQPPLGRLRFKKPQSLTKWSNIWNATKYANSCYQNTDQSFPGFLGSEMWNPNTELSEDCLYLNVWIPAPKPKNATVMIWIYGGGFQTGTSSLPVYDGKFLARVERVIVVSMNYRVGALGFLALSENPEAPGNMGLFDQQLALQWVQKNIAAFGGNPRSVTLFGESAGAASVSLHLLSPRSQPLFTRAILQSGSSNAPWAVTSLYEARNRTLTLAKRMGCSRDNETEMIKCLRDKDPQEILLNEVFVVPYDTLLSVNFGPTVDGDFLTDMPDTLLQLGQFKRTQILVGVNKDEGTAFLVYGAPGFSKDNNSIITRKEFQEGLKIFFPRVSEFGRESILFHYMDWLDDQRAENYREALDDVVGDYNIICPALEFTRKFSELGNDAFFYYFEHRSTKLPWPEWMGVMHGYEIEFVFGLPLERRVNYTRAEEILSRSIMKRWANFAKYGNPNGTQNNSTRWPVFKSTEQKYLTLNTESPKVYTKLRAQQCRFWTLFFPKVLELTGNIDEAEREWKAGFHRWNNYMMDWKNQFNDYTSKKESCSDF
Experiment: Inhibition of equine serum BuChE using butyrylthiocholine iodide as substrate pretreated 60 mins followed by substrate addition by Ellman's method
readout_name: pIC50
When answering, recall that pIC50 equals minus log10 of the concentration in mol/L, and write that number alone.

[ask] Fill blank: measured pIC50 of the compound C#CCN(C)C(C)Cc1cccc(OC(=O)N(C)CCCCCC)c1 (racemic) is ____.
[reply] 6.14

###

Molecular target: Beta-secretase 1 (Homo sapiens, UniProt P56817)
Sequence (P56817 whole entry): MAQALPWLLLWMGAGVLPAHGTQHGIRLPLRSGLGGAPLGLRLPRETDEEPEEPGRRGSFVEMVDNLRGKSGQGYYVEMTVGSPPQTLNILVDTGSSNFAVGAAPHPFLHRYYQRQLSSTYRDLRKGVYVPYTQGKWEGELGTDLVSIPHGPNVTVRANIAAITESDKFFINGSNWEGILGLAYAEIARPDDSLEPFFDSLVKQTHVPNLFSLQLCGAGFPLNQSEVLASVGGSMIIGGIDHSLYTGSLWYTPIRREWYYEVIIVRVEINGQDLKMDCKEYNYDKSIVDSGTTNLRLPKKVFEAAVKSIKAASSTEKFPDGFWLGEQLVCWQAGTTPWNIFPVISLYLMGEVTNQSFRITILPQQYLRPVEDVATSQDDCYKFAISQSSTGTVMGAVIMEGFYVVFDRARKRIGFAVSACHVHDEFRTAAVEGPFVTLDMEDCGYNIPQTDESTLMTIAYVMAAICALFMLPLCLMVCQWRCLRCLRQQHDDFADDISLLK
readout_name: IC50 (nM)
Kindly provide the numeric value in nM only, without the unit symbol.

[ask] For the record `c1ccc2c(NCc3ccc(-c4ccc(CNc5c6c(nc7ccccc57)CCCC6)cc4)cc3)c3c(nc2c1)CCCC3` , what value of IC50 is listed for Beta-secretase 1 (Homo sapiens, UniProt P56817)?
[reply] 2770

###

Consider the following compounds and their measured IC50 readings.
Biological target: Acetylcholinesterase (Electrophorus electricus, UniProt O42275)
Sequence (O42275 whole entry): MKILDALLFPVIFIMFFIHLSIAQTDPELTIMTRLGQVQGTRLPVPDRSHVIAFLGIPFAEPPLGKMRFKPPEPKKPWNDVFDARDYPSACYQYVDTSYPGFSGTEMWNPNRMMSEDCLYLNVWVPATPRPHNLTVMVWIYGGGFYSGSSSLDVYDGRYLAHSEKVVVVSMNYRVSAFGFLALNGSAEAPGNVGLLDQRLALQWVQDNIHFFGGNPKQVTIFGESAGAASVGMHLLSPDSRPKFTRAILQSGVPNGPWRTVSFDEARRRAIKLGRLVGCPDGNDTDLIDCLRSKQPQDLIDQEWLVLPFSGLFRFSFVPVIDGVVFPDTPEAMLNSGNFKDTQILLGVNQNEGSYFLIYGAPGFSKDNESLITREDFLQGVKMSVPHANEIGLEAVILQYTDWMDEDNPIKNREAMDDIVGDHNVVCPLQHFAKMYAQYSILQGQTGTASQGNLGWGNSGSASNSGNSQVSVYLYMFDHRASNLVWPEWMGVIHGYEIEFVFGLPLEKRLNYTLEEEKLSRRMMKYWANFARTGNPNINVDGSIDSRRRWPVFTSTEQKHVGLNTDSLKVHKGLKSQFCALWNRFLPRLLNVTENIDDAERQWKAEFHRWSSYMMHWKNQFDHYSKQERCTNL
Test: Inhibition of electric eel AChE using acetylthiocholine iodide as substrate pretreated followed by substrate addition and measured after 2 mins by Ellman's method
Kindly provide the numeric value in nM only, without the unit symbol.

{"given_smiles": "COc1cc(/C=C/C(=O)NCCNc2c3c(nc4ccccc24)CCCC3)ccc1OCc1ccccc1", "IC50 / nM": 15.8}

# ---- query compound ----
[ask] Fill blank: measured IC50 of the compound `O=C(/C=C/c1ccc(OCc2ccccc2)cc1)NCCNc1c2c(nc3ccccc13)CCCC2` is ____.
[reply] 29.5

###

Consider the following molecules and their measured pIC50 readings.
Molecular target: Acetylcholinesterase (Homo sapiens)
Experiment: biochemical
Description: Inhibition of human acetylcholinesterase expressed in HEK 293 cells using acetylthiocholine iodide as substrate by Ellman's method
When answering, recall that pIC50 equals minus log10 of the concentration in mol/L, and write that number alone.

{"molecule": "C#CCN(C)Cc1cc2cc(OCCCC3CCN(Cc4ccccc4)CC3)ccc2n1C", "readout_name": "pIC50", "test_result": 6.09}

[ask] Fill blank: measured pIC50 of the molecule O=C(c1ccc(OCCCc2cnc[nH]2)cc1)C1CC1 [CIPROXIFAN] is ____.
[reply] 4.06
